Tested on: PC-3 prostate
Assay: NCI tumour cell line growth inhibition, 48 h
measurement-kind: GI50

For COc1cc(/C=C/c2cc(/C=C/c3ccc(O)c(OC)c3)n(C(=O)Nc3ccc(C)cc3)n2)ccc1O , what is its reported GI50?
404 nM

Quick one: CC(=O)O[C@H]([C@H](OC(C)=O)[C@H](C)OC(C)=O)[C@@H](/C=C/[C@H]1CC=CC(=O)O1)OC(C)=O
17600 nM

// same read-out, input: COc1ccc(-n2c(=O)c3ccccc3n(Cc3ccc(C(=O)NO)cc3)c2=O)cc1
2080 nM

Same thing, different compound: Cc1cccc(Oc2ccc(Nc3ncnc4ccc(NC(=O)CN(C)C)cc34)cc2Cl)c1
2020 nM

Can you handle O=C1NC(=O)C2C3C=CC(C12)C1C2C(=O)NC(=O)C2C31 (stereo not given) next?
525000 nM
